Values compiled from paper PMC3474771.

Tested on: zebrafish embryos and larvae
run_conditions: exposure for 24 hours beginning at 1 dpf; highest concentration with no phenotypic abnormalities; followed to 9 dpf
reported_metric: Maximum-tolerated concentration (MTC) (%)

{"molecule": "CC(O)CO (stereo not drawn)", "assay_system": "zebrafish embryos and larvae", "inequality_operator": ">", "readout_value": 2.5}
{"molecule": "CC#N", "assay_system": "zebrafish embryos and larvae", "inequality_operator": "=", "readout_value": 1}
{"molecule": "CO", "assay_system": "zebrafish embryos and larvae", "inequality_operator": "=", "readout_value": 1.5}
{"molecule": "CC(O)COC[C@H]1O[C@@H]2O[C@H]3[C@H](O)[C@@H](O)[C@@H](O[C@H]4[C@H](O)[C@@H](O)[C@@H](O[C@H]5[C@H](O)[C@@H](O)[C@@H](O[C@H]6[C@H](O)[C@@H](O)[C@@H](O[C@H]7[C@H](O)[C@@H](O)[C@@H](O[C@H]8[C@H](O)[C@@H](O)[C@@H](O[C@H]1[C@H](O)[C@H]2O)O[C@@H]8COCC(C)O)O[C@@H]7COCC(C)O)O[C@@H]6COCC(C)O)O[C@@H]5COCC(C)O)O[C@@H]4COCC(C)O)O[C@@H]3COCC(C)O (stereo partly drawn) [Cyclodextrin (HPBCD), 2-hydroxypropyl-beta-cyclodextrin]", "assay_system": "zebrafish embryos and larvae", "inequality_operator": "=", "readout_value": 1}
{"molecule": "CCO", "assay_system": "zebrafish embryos and larvae", "inequality_operator": "=", "readout_value": 1}
{"molecule": "CC1(C)OCC(CO)O1 (stereo not drawn)", "assay_system": "zebrafish embryos and larvae", "inequality_operator": "=", "readout_value": 0.5}
{"molecule": "CC(C)O", "assay_system": "zebrafish embryos and larvae", "inequality_operator": "=", "readout_value": 0.5}
{"molecule": "CCC(C)=O", "assay_system": "zebrafish embryos and larvae", "inequality_operator": "=", "readout_value": 1}
{"molecule": "C[S+](C)[O-] [Dimethyl sulfoxide (DMSO), Dimethyl sulfoxide]", "assay_system": "zebrafish embryos and larvae", "inequality_operator": "=", "readout_value": 2}
{"molecule": "CC(C)=O", "assay_system": "zebrafish embryos and larvae", "inequality_operator": "=", "readout_value": 1.5}
{"molecule": "OCC(O)CO", "assay_system": "zebrafish embryos and larvae", "inequality_operator": "=", "readout_value": 1.5}
{"molecule": "CN(C)C=O [Dimethyl formamide (DMF), Dimethyl formamide]", "assay_system": "zebrafish embryos and larvae", "inequality_operator": "<", "readout_value": 0.5}

###

System: zebrafish embryos and larvae
run_conditions: exposure for 24 hours beginning at 7 dpf; highest concentration with no phenotypic abnormalities; followed to 9 dpf

{"compound": "OCC(O)CO", "uom": "%", "inequality_operator": ">", "Maximum-tolerated concentration (MTC)": 2.5}
{"compound": "CC(C)=O", "uom": "%", "inequality_operator": "<", "Maximum-tolerated concentration (MTC)": 0.5}
{"compound": "CC1(C)OCC(CO)O1 (centres unmarked)", "uom": "%", "inequality_operator": "<", "Maximum-tolerated concentration (MTC)": 0.5}
{"compound": "C[S+](C)[O-] [Dimethyl sulfoxide (DMSO), Dimethyl sulfoxide]", "uom": "%", "inequality_operator": "=", "Maximum-tolerated concentration (MTC)": 1.5}
{"compound": "CC(C)O", "uom": "%", "inequality_operator": "=", "Maximum-tolerated concentration (MTC)": 0.5}

###

Test system: zebrafish embryos and larvae
run_conditions: exposure from 7 dpf; at the concentration in parentheses
reported_metric: Phenotypic effects above MTC after 24 hours (average penetrance at least 50%)

{"compound": "CC#N", "assay_system": "zebrafish embryos and larvae", "readout_value": "IC PE"}
{"compound": "CC1(C)OCC(CO)O1 (centres unmarked)", "assay_system": "zebrafish embryos and larvae", "readout_value": "NB LP"}
{"compound": "CN(C)C=O [Dimethyl formamide (DMF), Dimethyl formamide]", "assay_system": "zebrafish embryos and larvae", "readout_value": "HO LP"}
{"compound": "C[S+](C)[O-] [Dimethyl sulfoxide (DMSO), Dimethyl sulfoxide]", "assay_system": "zebrafish embryos and larvae", "readout_value": "NB LP"}

###

Tested on: zebrafish embryos and larvae
run_conditions: exposure from 1 dpf; at the concentration in parentheses
reported_metric: Phenotypic effects above MTC after 24 hours (average penetrance at least 50%)

{"compound": "CC(C)O [Isopropanol, isopropanol]", "readout_value": "AP IC"}
{"compound": "CC1(C)OCC(CO)O1 (centres unmarked) [Solketal]", "readout_value": "AP BH IC IM NB PE"}
{"compound": "CC#N [Acetonitrile, acetonitrile]", "readout_value": "DD PE"}
{"compound": "CN(C)C=O [Dimethyl formamide (DMF), Dimethyl formamide]", "readout_value": "AP BH IC IM NB PE"}

###

Listing of recorded Maximum-tolerated concentration (MTC) by entry.
Tested on: zebrafish embryos and larvae
run_conditions: exposure for 24 hours beginning at 3 dpf; highest concentration with no phenotypic abnormalities; followed to 9 dpf

{"compound": "CC(C)=O", "inequality_operator": "≥", "Maximum-tolerated concentration (MTC) (%)": 2.5}
{"compound": "CC1(C)OCC(CO)O1 (stereo not shown)", "inequality_operator": "=", "Maximum-tolerated concentration (MTC) (%)": 0.5}
{"compound": "CC(O)COC[C@H]1O[C@@H]2O[C@H]3[C@H](O)[C@@H](O)[C@@H](O[C@H]4[C@H](O)[C@@H](O)[C@@H](O[C@H]5[C@H](O)[C@@H](O)[C@@H](O[C@H]6[C@H](O)[C@@H](O)[C@@H](O[C@H]7[C@H](O)[C@@H](O)[C@@H](O[C@H]8[C@H](O)[C@@H](O)[C@@H](O[C@H]1[C@H](O)[C@H]2O)O[C@@H]8COCC(C)O)O[C@@H]7COCC(C)O)O[C@@H]6COCC(C)O)O[C@@H]5COCC(C)O)O[C@@H]4COCC(C)O)O[C@@H]3COCC(C)O (stereo partly drawn) [Cyclodextrin (HPBCD), 2-hydroxypropyl-beta-cyclodextrin]", "inequality_operator": "=", "Maximum-tolerated concentration (MTC) (%)": 1.5}
{"compound": "CCC(C)=O", "inequality_operator": "=", "Maximum-tolerated concentration (MTC) (%)": 1.5}
{"compound": "CCO", "inequality_operator": "=", "Maximum-tolerated concentration (MTC) (%)": 1}
{"compound": "CC(O)CO (stereo not shown)", "inequality_operator": "=", "Maximum-tolerated concentration (MTC) (%)": 2}
{"compound": "OCC(O)CO", "inequality_operator": "=", "Maximum-tolerated concentration (MTC) (%)": 1.5}

###

Tested on: zebrafish embryos and larvae
run_conditions: exposure for 24 hours beginning at 5 dpf; highest concentration with no phenotypic abnormalities; followed to 9 dpf

{"compound": "CC(O)CO (stereo not shown) [Propylene glycol]", "Maximum-tolerated concentration (MTC)": ">2.5%"}
{"compound": "CC(O)COC[C@H]1O[C@@H]2O[C@H]3[C@H](O)[C@@H](O)[C@@H](O[C@H]4[C@H](O)[C@@H](O)[C@@H](O[C@H]5[C@H](O)[C@@H](O)[C@@H](O[C@H]6[C@H](O)[C@@H](O)[C@@H](O[C@H]7[C@H](O)[C@@H](O)[C@@H](O[C@H]8[C@H](O)[C@@H](O)[C@@H](O[C@H]1[C@H](O)[C@H]2O)O[C@@H]8COCC(C)O)O[C@@H]7COCC(C)O)O[C@@H]6COCC(C)O)O[C@@H]5COCC(C)O)O[C@@H]4COCC(C)O)O[C@@H]3COCC(C)O (stereo partly drawn) [Cyclodextrin (HPBCD), 2-hydroxypropyl-beta-cyclodextrin]", "Maximum-tolerated concentration (MTC)": "1.5%"}
{"compound": "C[S+](C)[O-] [Dimethyl sulfoxide (DMSO), Dimethyl sulfoxide]", "Maximum-tolerated concentration (MTC)": "2%"}
{"compound": "OCC(O)CO [Glycerol]", "Maximum-tolerated concentration (MTC)": ">2.5%"}

###

Tested on: zebrafish embryos and larvae
run_conditions: exposure for 24 hours beginning at 2 dpf; highest concentration with no phenotypic abnormalities; followed to 9 dpf

{"compound": "OCC(O)CO [Glycerol]", "Maximum-tolerated concentration (MTC) / %": 1.5}
{"compound": "C[S+](C)[O-] [Dimethyl sulfoxide (DMSO), Dimethyl sulfoxide]", "Maximum-tolerated concentration (MTC) / %": 2}
{"compound": "CC(C)O [Isopropanol, isopropanol]", "Maximum-tolerated concentration (MTC) / %": 1}
{"compound": "CCO [Ethanol, ethanol]", "Maximum-tolerated concentration (MTC) / %": 1.5}

###

Test system: zebrafish embryos and larvae
run_conditions: exposure for 24 hours beginning at 4 dpf; highest concentration with no phenotypic abnormalities; followed to 9 dpf

{"compound": "CC1(C)OCC(CO)O1 (centres unmarked) [Solketal]", "Maximum-tolerated concentration (MTC)": "<0.5%"}
{"compound": "CC(C)=O [Acetone, acetone]", "Maximum-tolerated concentration (MTC)": "1.5%"}
{"compound": "CC(O)CO (centres unmarked) [Propylene glycol]", "Maximum-tolerated concentration (MTC)": "1.5%"}
{"compound": "CO [Methanol, methanol]", "Maximum-tolerated concentration (MTC)": "1%"}
{"compound": "C[S+](C)[O-] [Dimethyl sulfoxide (DMSO), Dimethyl sulfoxide]", "Maximum-tolerated concentration (MTC)": "2%"}
